assay_procedure: method code SF-RC, from DOI: 10.1016/j.nucmedbio.2011.07.009, PMID: 21958846
applied_conditions: pH 7.4

[
  {
    "compound": "Cc1c(CC(CO)CF)n(C)c(=O)[nH]c1=O (stereo unspecified)",
    "logD": -0.56
  }
]

---

recorded_endpoint: logP

[
  {
    "structure_string": "Cc1c(-c2ccc(OCCCc3c[nH]cn3)cc2)no[n+]1[O-]",
    "endpoint_value": 2.4
  }
]

---

assay_procedure: method code SF-AS, from DOI: 10.1021/jm00254a011, PMID: 4845376
Measured logP by item
recorded_endpoint: logP

[
  {
    "structure_string": "O=C1NCCN1c1ccc([N+](=O)[O-])o1",
    "endpoint_value": 0.25
  },
  {
    "structure_string": "CSC1=NCCN1c1ccc([N+](=O)[O-])o1",
    "endpoint_value": 1.19
  },
  {
    "structure_string": "O=[N+]([O-])c1cnc(N2CCNC2=S)s1",
    "endpoint_value": 1.7
  },
  {
    "structure_string": "CSC1=NCCN1c1ncc([N+](=O)[O-])s1",
    "endpoint_value": 1.78
  },
  {
    "structure_string": "O=C1NCCN1c1ncc([N+](=O)[O-])s1",
    "endpoint_value": 0.91
  }
]

---

assay_procedure: method code SF-AS, from DOI: 10.1007/bf01067967, PMID: 3820093
applied_conditions: pH 7.5

[
  {
    "structure_string": "CCCc1ccc(N)cc1",
    "logD": 2.4
  }
]

---

[
  {
    "compound": "C=CCOc1ccccc1OCC(CNC(C)C)OC(=O)CCCC (configuration not stated)",
    "logP": 4
  },
  {
    "compound": "C=CCOc1ccccc1OCC(CNC(C)C)OC(=O)/C=C/C (configuration not stated)",
    "logP": 3.65
  }
]

---

[
  {
    "compound": "COC(=O)C1C2CC3CCC1N3CC2=Cc1ccc(I)c(Cl)c1 (stereo unspecified)",
    "logP": 4.25
  }
]

---

assay_procedure: method code SF-AS, from DOI: 10.1021/jm00075a005, PMID: 8246220
applied_conditions: pH 7.4
Measured logD by item

[
  {
    "structure_string": "CON1C(=O)CC2(CCCC2)C1=O",
    "logD": 1.15
  },
  {
    "structure_string": "O=C1CC2(CCCC2)C(=O)N1OCc1ccccc1",
    "logD": 2.3
  },
  {
    "structure_string": "O=C1CC2(CCCC2)C(=O)N1OCc1ccc(Cl)cc1",
    "logD": 2.53
  }
]

---

[
  {
    "structure_string": "c1ccc(Cc2nc3ccccc3[nH]2)cc1",
    "logP": 4.16
  },
  {
    "structure_string": "c1ccc2[nH]c(SCCC3CCCCC3)nc2c1",
    "logP": 4.5
  }
]

---

recorded_endpoint: logP

[
  {
    "molecule": "ClC1C(Cl)C(Cl)C(Cl)C(Cl)C1Cl (configuration not stated)",
    "recorded_endpoint": "logP",
    "endpoint_value": 3.67
  },
  {
    "molecule": "c1ccc(Oc2ccccc2)cc1",
    "recorded_endpoint": "logP",
    "endpoint_value": 3.87
  }
]
